Would you mind telling me the reported pIC50 of each entry?
Target: human full length PIK3KA Wild-type (p110α/p85α complex) (Homo sapiens)
Construct: Recombinant, catalytically active human full length PIK3KA Wild-type and H1047R mutant were purchased; 6xHis (N); purchased EMD Millipore Sigma 14-602M
Test: PI3K-Alpha Kinase (PIK3CA) biochemical activity, wild-type (ADP-Glo)
Conditions: PIP2diC8 lipid substrate, 20 uM ATP
pIC50: −log10 of the molar value.

So what does the record say about pIC50 for Cc1cc(C(C)Nc2ccccc2C(=O)O)c2oc(-c3cnn(C)c3)cc(=O)c2c1 (centres unmarked) ? 5.30 to 6.00

So what does the record say about pIC50 for Cc1cc(C(C)Nc2ccccc2C(=O)O)c2oc(-c3ccccn3)cc(=O)c2c1 (single isomer, unassigned; isomer 2) ? < 5.00

So what does the record say about pIC50 for Cc1cc(C(C)Nc2ccccc2C(=O)O)c2oc(-c3cnccn3)cc(=O)c2c1 (single isomer, unassigned; isomer 2) [Example 16] ? < 5.00

So what does the record say about pIC50 for Cc1cc(C(C)Nc2ccccc2C(=O)O)c2oc(-c3cnc(C)nc3)cc(=O)c2c1 (single isomer, unassigned; isomer 1) [Example 32] ? 5.00 to 5.30

So what does the record say about pIC50 for Cc1cc(C(C)Nc2ccccc2C(=O)O)c2oc(-n3ccnc3)cc(=O)c2c1 (single isomer, unassigned) ? 5.30 to 6.00

---

Biological target: PI3K-α (PIK3CA) in MDA-MB-453 cells (Homo sapiens)
Sequence (P42336 whole entry): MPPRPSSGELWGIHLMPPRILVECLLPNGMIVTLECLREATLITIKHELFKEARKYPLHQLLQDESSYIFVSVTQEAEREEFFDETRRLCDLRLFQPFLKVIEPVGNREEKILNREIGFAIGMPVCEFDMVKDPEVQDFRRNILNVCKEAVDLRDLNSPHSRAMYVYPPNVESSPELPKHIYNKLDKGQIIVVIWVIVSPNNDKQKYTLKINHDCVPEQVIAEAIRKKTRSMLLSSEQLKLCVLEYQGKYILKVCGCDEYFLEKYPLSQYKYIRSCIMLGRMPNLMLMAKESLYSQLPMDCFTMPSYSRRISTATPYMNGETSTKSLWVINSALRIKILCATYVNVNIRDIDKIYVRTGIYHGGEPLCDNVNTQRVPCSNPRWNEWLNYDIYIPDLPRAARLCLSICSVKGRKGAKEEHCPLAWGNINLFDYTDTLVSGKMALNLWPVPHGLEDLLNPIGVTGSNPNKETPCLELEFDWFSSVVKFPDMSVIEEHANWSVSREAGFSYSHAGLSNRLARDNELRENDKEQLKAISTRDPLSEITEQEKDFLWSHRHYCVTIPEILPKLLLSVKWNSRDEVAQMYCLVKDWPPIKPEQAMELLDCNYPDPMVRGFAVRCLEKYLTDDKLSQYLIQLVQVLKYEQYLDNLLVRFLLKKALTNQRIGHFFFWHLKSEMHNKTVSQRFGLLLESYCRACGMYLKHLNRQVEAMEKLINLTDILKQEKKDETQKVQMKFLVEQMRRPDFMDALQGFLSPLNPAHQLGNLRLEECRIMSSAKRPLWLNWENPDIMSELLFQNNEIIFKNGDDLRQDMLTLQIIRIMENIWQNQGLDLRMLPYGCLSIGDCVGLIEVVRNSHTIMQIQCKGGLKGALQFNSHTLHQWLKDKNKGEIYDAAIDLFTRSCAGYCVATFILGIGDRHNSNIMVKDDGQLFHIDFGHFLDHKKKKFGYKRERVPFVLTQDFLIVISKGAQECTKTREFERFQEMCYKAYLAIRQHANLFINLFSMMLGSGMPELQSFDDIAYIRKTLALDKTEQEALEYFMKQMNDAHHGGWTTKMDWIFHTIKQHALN
Sequence (P27986 2-724, further chain): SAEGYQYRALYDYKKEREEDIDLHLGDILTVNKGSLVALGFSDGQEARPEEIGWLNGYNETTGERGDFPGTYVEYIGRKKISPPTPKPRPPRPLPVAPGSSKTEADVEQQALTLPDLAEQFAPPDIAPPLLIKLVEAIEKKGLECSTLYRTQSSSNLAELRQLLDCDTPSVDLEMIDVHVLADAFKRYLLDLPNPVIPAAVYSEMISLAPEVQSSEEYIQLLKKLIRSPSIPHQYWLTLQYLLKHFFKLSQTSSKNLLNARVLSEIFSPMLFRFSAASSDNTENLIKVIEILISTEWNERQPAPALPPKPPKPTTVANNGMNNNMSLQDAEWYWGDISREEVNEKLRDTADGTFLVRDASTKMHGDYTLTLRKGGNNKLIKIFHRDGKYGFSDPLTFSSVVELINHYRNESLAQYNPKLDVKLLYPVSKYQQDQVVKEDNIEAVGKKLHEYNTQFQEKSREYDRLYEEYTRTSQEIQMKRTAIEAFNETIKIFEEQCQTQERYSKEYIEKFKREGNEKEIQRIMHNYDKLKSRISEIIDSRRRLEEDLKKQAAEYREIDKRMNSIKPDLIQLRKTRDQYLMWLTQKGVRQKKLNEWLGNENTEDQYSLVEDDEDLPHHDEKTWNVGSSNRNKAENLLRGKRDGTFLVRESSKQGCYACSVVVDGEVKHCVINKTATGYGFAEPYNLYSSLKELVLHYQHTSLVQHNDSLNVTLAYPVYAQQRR
Experiment: PI3K-Alpha Kinase (PIK3CA) activity in vitro cell based assay (AlphaLisa SureFire)
Conditions: read-out: PI3K-α (PIK3CA) in vitro cell based assay IC50, 0% FBS, 3 hours treatment
Experimental: PI3K-Alpha Kinase (PIK3CA) Activity In Vitro Cell Based Assay and Determining IC50 Values for Inhibitors The MDA-MB-453 (ATCC-HTB-131) cell line was obtained from the American Type Culture Collection (Manassas, Va.). […] Compounds were tested in duplicate and the average % inhibition at each compound concentration was used to generate a single dose response curve. […] The data was analyzed using a 4-parameter nonlinear logistic equation (four-parameter logistic concentration-response curve): […]
Would you mind telling me the reported IC50 of each entry?

So what does the record say about IC50 for Cc1cc(C(C)Nc2ccccc2C(=O)O)c2oc(-c3cnn(C(F)F)c3)cc(=O)c2c1 (single isomer, unassigned) [Example 52] ? 50 to 100 nM

So what does the record say about IC50 for Cc1cc(C(C)Nc2ccccc2C(=O)O)c2oc(-c3ccc(C4(C#N)CC4)nc3)c(C)c(=O)c2c1 (single isomer, unassigned) [Example 89] ? < 50 nM

So what does the record say about IC50 for Cc1cc(C(C)Nc2ccc(Cl)nc2C(=O)O)c2oc(-c3ccccn3)c(C)c(=O)c2c1 (single isomer, unassigned) [Example 121] ? < 50 nM

So what does the record say about IC50 for COc1ccc(-n2cc(-c3cc(=O)c4cc(C)cc(C(C)Nc5ccccc5C(=O)O)c4o3)cn2)cc1 (single isomer, unassigned) [Example 79] ? 50 to 100 nM

So what does the record say about IC50 for Cc1cc(C(C)Nc2ccccc2C(=O)O)c2oc(-c3cnn(-c4ccc(C#N)nc4)c3)cc(=O)c2c1 (single isomer, unassigned) [Example 82] ? 50 to 100 nM

So what does the record say about IC50 for COc1ccccc1-n1cc(-c2oc3c(C(C)Nc4ccccc4C(=O)O)cc(C)cc3c(=O)c2C)cn1 (single isomer, unassigned) [Example 70] ? < 50 nM

So what does the record say about IC50 for Cc1cc(C(C)Nc2ccccc2C(=O)O)c2oc(-c3cncc(C#N)c3)c(C)c(=O)c2c1 (single isomer, unassigned) [Example 125] ? < 50 nM

So what does the record say about IC50 for COc1ccc(-n2cc(-c3cc(=O)c4cc(C)cc(C(C)Nc5ccccc5C(=O)O)c4o3)nn2)cc1OC (single isomer, unassigned) [Example 133] ? 100 to 500 nM

So what does the record say about IC50 for Cc1cc(C(C)Nc2ccccc2C(=O)O)c2oc(-c3cnn(-c4cccc(C#N)c4)c3)c(C)c(=O)c2c1 (single isomer, unassigned) [Example 74] ? < 50 nM

So what does the record say about IC50 for Cc1cc(C(C)Nc2cccnc2C(=O)O)c2oc(-c3cccc(C(F)F)n3)c(C)c(=O)c2c1 (single isomer, unassigned; isomer 1) [Example 139] ? 100 to 500 nM

So what does the record say about IC50 for Cc1cc(C(C)Nc2ccccc2C(=O)O)c2oc(-c3cncc(F)c3)cc(=O)c2c1 (single isomer, unassigned) [Example 44] ? < 50 nM

So what does the record say about IC50 for COc1ccc(-n2nncc2-c2cc(=O)c3cc(C)cc(C(C)Nc4ccccc4C(=O)O)c3o2)cc1OC (single isomer, unassigned) [Example 134] ? > 500 nM

So what does the record say about IC50 for Cc1cc(C(C)Nc2ccccc2C(=O)O)c2oc(-c3cnn(-c4ccc(C#N)cn4)c3)cc(=O)c2c1 (single isomer, unassigned) [Example 83] ? 50 to 100 nM

So what does the record say about IC50 for Cc1cc(C(C)Nc2ccccc2C(=O)O)c2oc(-c3cnn(-c4ccc(C#N)c(F)c4)c3)cc(=O)c2c1 (single isomer, unassigned) [Example 85] ? 100 to 500 nM
